target: Platelet-derived growth factor receptor beta (Homo sapiens) (UniProt P09619); conditions: at 1 µM;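 note: each value is a mean percent inhibition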
Sequence (P09619 whole entry): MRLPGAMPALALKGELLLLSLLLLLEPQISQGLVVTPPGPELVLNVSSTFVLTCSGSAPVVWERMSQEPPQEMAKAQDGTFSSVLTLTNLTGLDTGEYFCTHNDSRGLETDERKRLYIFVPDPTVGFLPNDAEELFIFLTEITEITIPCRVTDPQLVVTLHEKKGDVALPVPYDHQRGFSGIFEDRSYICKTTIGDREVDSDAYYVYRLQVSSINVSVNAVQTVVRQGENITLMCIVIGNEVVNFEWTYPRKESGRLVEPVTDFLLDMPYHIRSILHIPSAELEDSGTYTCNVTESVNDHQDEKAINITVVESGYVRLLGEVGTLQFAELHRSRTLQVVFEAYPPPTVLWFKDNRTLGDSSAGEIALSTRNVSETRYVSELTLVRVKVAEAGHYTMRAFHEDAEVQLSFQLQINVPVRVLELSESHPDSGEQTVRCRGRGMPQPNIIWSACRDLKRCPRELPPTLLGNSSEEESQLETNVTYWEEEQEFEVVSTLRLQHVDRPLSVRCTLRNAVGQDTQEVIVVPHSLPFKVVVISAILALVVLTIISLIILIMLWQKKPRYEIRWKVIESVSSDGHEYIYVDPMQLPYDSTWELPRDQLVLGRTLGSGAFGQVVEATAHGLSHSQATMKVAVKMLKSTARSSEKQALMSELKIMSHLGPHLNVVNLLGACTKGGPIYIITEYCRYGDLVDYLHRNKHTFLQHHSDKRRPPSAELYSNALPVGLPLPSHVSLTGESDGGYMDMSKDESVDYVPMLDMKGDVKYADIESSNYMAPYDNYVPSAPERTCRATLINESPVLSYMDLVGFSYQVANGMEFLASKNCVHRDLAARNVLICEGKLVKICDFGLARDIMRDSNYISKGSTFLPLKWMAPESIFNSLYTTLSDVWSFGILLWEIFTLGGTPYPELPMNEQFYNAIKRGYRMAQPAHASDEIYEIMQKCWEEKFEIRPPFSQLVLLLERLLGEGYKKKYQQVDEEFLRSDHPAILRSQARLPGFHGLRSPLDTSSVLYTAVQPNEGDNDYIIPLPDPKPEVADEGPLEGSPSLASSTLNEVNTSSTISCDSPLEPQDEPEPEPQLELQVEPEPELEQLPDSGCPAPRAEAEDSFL
REPORTED PROPERTY: inhibition (%)
One number for each entry, in %.

Worked cases, answers included:
CCOc1ccc2c(-c3ccnc(Nc4cc(OC)cc(C(F)(F)F)c4)n3)cnn2n1 = 29.3
Cc1nnc(-c2cccc(-c3ccc(C(=O)NCC4CC4)cc3)c2)o1 = 8.15
COc1cc2c(cc1Nc1nc(Nc3cccc(F)c3C(N)=O)c3cc[nH]c3n1)N(C(=O)CN1CCN(C(C)C)CC1)CC2 = 5.17
NC(=O)c1ccc2c(-c3ccnc(NCCCO)n3)c(-c3ccc(F)cc3)nn2c1 = 18.2
CCCNc1cccc(-n2ncc3c(N/N=C/c4ccncc4)ncnc32)c1 = 78.8

Below is a list of compounds. For each, state its recorded inhibition.
1. Cc1c2ccc(N(C)c3ccnc(Nc4cccc(S(N)(=O)=O)c4)n3)cc2nn1C
2. Cc1cc(O)cc(C)c1/C=C/c1cncc(C(=O)OC(C)(C)C)c1
3. COC(=O)Nc1nc2cc(Oc3ccc(NC(=O)Nc4ccccc4)cc3)ccc2[nH]1
4. COc1cc(N2CCN(C(C)C)CC2)ccc1Nc1nc(Nc2cccc(F)c2C(=O)O)c2cc[nH]c2n1

79.2
43.3
20.8
6.82

Field: inhibition. Fill in for each record below.
1. CN(C)CCNC(=O)Nc1ccc(N(C)c2ccnc(Nc3ccc(CS(C)(=O)=O)cc3)n2)cc1
2. N#Cc1cccc(Nc2ncc(-c3ccccc3)o2)c1

[66.8, 26.1]

For each listed entry, give its inhibition.
1. CNC(=O)c1sc(-n2cnc3cc(OC)c(OC)cc32)cc1OCc1ccccc1C(F)(F)F
2. COc1ccc2ncn(-c3cc(O[C@H](C)c4ccccc4C(F)(F)F)c(C(N)=O)s3)c2c1
3. O=C(O[C@H]1CN[C@H](C#Cc2cc3ncnc(Nc4ccc5c(ccn5Cc5cc(F)ccc5F)c4)c3s2)C1)N1CCOCC1
4. CN(c1ccc(NC(=O)NCCN2CCOCC2)cc1)c1ccnc(Nc2ccc(CS(C)(=O)=O)cc2)n1
5. c1ccc(-c2n[nH]cc2-c2ccnc(-c3ccc(OCCn4ccnc4)cc3)c2)nc1

[44.2, 37.5, 7.68, 77.1, 65.6]

Would you be so kind as to report inhibition for each listed record?
1. CS(=O)(=O)CCNCc1ccoc1-c1ccc2ncnc(Nc3ccc(OCc4ccccc4)cc3)c2c1
2. CS(=O)(=O)Nc1ccc(-c2cc(-c3ccccc3)cc(C(N)=O)c2N)cc1
3. CCn1c(-c2nonc2N)nc2cncc(C(=O)NCCNC)c21
4. CN1CCC(n2cnc(-c3ccc(F)cc3)c2-c2ccnc(NCCO)n2)CC1

1. 5.15
2. 9.4
3. 12.4
4. 20.7

---

system: Epidermal growth factor receptor (Homo sapiens), P00533 [T790M]; settings: at 0.1 µM
Sequence (P00533 whole entry T790M): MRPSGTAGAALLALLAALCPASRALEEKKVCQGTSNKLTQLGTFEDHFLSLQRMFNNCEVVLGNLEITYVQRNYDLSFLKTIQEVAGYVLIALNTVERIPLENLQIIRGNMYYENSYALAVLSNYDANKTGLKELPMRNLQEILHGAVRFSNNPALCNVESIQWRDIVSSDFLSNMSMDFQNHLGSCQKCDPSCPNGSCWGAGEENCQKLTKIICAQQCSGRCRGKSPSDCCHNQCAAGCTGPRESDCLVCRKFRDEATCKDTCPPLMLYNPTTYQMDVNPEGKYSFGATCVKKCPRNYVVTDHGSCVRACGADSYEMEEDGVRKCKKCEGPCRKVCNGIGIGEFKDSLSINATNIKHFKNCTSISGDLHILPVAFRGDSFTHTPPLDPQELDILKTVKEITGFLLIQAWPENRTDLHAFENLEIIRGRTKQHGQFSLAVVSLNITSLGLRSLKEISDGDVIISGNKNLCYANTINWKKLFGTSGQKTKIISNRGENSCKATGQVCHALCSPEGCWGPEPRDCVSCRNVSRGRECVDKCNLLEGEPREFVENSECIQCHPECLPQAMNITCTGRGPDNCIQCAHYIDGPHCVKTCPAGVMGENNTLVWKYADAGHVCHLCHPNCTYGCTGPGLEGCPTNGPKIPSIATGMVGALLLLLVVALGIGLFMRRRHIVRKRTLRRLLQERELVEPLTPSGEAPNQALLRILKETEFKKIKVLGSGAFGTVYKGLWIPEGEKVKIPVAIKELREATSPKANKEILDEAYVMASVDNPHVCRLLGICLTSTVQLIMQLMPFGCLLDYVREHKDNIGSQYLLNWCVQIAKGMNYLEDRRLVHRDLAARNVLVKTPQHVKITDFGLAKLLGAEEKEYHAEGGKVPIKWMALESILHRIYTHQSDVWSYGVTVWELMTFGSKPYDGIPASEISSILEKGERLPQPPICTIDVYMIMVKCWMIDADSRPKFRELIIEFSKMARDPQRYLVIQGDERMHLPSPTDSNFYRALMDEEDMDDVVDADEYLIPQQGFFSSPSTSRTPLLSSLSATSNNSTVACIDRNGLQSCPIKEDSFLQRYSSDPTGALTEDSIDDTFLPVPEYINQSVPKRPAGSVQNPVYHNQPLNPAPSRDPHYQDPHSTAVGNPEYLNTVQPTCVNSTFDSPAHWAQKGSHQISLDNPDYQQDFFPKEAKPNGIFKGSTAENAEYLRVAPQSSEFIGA
REPORTED PROPERTY: inhibition (%)
Answers are plain numbers, in %.

Check out these entries, answers already filled in.
COc1cccc(-n2ncc3c(N/N=C/c4ccc(C(=O)NCCN(C)C)cc4)ncnc32)c1 = 0.59
COc1c(C(N)=O)cc(-c2ccc(Cl)cc2)cc1-c1ccc(S(N)(=O)=O)cc1 = 1.41
CC1=C(C(=O)Nc2ccc3[nH]ncc3c2)C(c2ccc(F)cc2)N=C(c2ccc(C(F)(F)F)nc2)N1 (stereo not drawn) = 0.14

Could I get inhibition for every one of these entries?
1. Cn1c(-c2nonc2N)nc2cnccc21
2. CNC(=O)c1cncc(/C=C/c2ccccc2C)c1
3. CS(=O)(=O)CCNCc1ccc(-c2ccc3ncnc(Nc4ccc(OCc5cccc(C(F)(F)F)c5)cc4)c3c2)o1
4. c1ccc(-c2n[nH]cc2-c2ccnc(-c3ccc(OCCn4ccnc4)cc3)c2)nc1
5. Cc1c2ccc(N(C)c3ccnc(Nc4cccc(S(N)(=O)=O)c4)n3)cc2nn1C
6. COc1cc(Nc2ncc(-c3ccccc3)o2)cc(OC)c1
7. COc1cccc(Nc2nccc(-c3cnn4ncccc34)n2)c1

1.55
1.07
0.24
-1.24
3.44
1.76
1.52
